Biological target: PfCDPK4 (Plasmodium falciparum (isolate 3D7))
Test: biochemical
Conditions: read-out: PfCDPK4 (% inhibition @ 3 uM)
endpoint.label: inhibition at 3 µM

Would you please look over these solved cases?
CCCC(=O)Nc1ccc(-c2nn(C(C)(C)C)c3ncnc(N)c23)cc1; 80%
COc1ccc2cc(-c3nn(C(C)(C)C)c4ncnc(N)c34)ccc2c1; 97%
Nc1ncnc2c1c(-c1ccc3cc(OCc4cccc(Cl)c4)ccc3c1)nn2CC1CCNCC1; 96%

Exercise: Give inhibition at 3 µM; test system PfCDPK4 (Plasmodium falciparum (isolate 3D7)); molecule Cn1ncc2cc(-c3nn(CC4CCNCC4)c4ncnc(N)c34)ccc21
Solution: 93%

Exercise: Give inhibition at 3 µM; test system PfCDPK4 (Plasmodium falciparum (isolate 3D7)); molecule Nc1nc2ccc(C(=O)c3ccccc3)cc2[nH]1
Solution: 51%

---

Target: PfCDPK4 (Plasmodium falciparum (isolate 3D7), UniProt Q8IBS5)
Experiment: biochemical
Conditions: read-out: PfCDPK4 (% inhibition @ 3 uM)
endpoint.label: inhibition at 3 µM (%)
Report the value in % with no unit label.

Exercise: Note inhibition at 3 µM for the compound shown: O=C(NCCO)Nc1nc2ccc(C(=O)c3ccccc3)cc2[nH]1
Solution: 64

Exercise: Note inhibition at 3 µM for the compound shown: CCN1CCC(CCn2nc(Cc3cccc4ccccc34)c3c(N)ncnc32)CC1
Solution: 37

---

Biological target: PfCDPK4 (Plasmodium falciparum (isolate 3D7))
Test: biochemical
Conditions: read-out: PfCDPK4 (% inhibition @ 3 uM)
# inhibition at 3 µM per entry
Report the value in % with no unit label.

Would you please look over these solved cases?
Nc1ncnc2c1c(-c1cnc3ccccc3c1)nn2CC1CCNCC1; 86
Nc1ncnc2c1c(-c1ccc3cc(O)ccc3c1)nn2CC1CCNCC1; 101
CC(C)(C)c1nc(-c2ccc3ccccc3c2)c2c(N)nccn12; 99
CC(C)(C)c1nc(-c2cnc3ccccc3c2)c2c(N)nccn12; 91
CC(C)n1nc(-c2cccc3c2sc2ccccc23)c2c(N)ncnc21; 21

Exercise: Note inhibition at 3 µM for the molecule shown: CC(C)n1nc(Cc2ccc3ccccc3c2)c2c(N)ncnc21
Solution: 13

Exercise: Note inhibition at 3 µM for the molecule shown: Nc1ncnc2c1c(-c1ccc3nccnc3c1)nn2CC1CCNCC1
Solution: 32

Exercise: Note inhibition at 3 µM for the molecule shown: CC(C)C(=O)Nc1ccc(-c2nn(C(C)(C)C)c3ncnc(N)c23)cc1
Solution: 79

Exercise: Note inhibition at 3 µM for the molecule shown: Nc1ncnc2c1c(Cc1cccc3ccccc13)nn2Cc1c[nH]cn1
Solution: 40

---

Biological target: PfCDPK4 (Plasmodium falciparum (isolate 3D7), UniProt Q8IBS5)
Experiment: biochemical
Conditions: read-out: PfCDPK4 (% inhibition @ 3 uM)
Outcome: Met for inhibition at 3 µM of at least 80%; Not met for anything lower.

Study these solved cases before continuing.
NCCCC(=O)Nc1nc2ccc(C(=O)c3ccccc3)cc2[nH]1; Not met
CC(C)n1nc(-c2ccc(Cl)c(Cl)c2)c2c(N)ncnc21; Met
CC(C)(C)OC(=O)NCCC(=O)Nc1nc2ccc(C(=O)c3ccccc3)cc2[nH]1; Not met
CC(C)n1nc(-c2ccc3cc(OCc4ccccc4)ccc3c2)c2c(N)ncnc21; Met
CC(C)COc1ccc2cc(-c3nn(CC4CCNCC4)c4ncnc(N)c34)ccc2c1; Met

Read the next record carefully.
Exercise: hey, is inhibition at 3 µM for this one >= 80%? Nc1ncnc2c1c(Cc1cccc3ccccc13)nn2C1CCCCC1
Solution: Not met

---

Biological target: PfCDPK1 (Plasmodium falciparum (isolate 3D7))
Assay: biochemical
Settings: read-out: PfCDPK1 (% inhibition @ 3 uM)
Outcome: t for inhibition at 3 µM of at least 80%; f for anything lower.

COc1ccc2cc(-c3nc(C(C)(C)C)n4ccnc(N)c34)ccc2c1; t
CC(C)n1nc(-c2ccc3cc(OCc4ccncc4)ccc3c2)c2c(N)ncnc21; t
Cc1cc(-c2nn(CC3CCNCC3)c3ncnc(N)c23)ccc1-c1ccccc1; t
CC(C)COc1ccc2cc(-c3nn(C(C)C)c4ncnc(N)c34)ccc2c1; t
COc1ccc(-c2nn(C(C)C)c3ncnc(N)c23)cc1C; f

Exercise: hey, is inhibition at 3 µM for this one >= 80%? Nc1ncnc2c1c(-c1ccccc1)nn2CC1CCNCC1
Solution: t

Exercise: hey, is inhibition at 3 µM for this one >= 80%? CC(C)COc1ccc2cc(-c3nn(CC4CCN(C)CC4)c4ncnc(N)c34)ccc2c1
Solution: t

Exercise: hey, is inhibition at 3 µM for this one >= 80%? COc1cc(COc2cccc(-c3nn(C(C)C)c4ncnc(N)c34)c2)cc(OC)c1
Solution: f

Exercise: hey, is inhibition at 3 µM for this one >= 80%? O=C(NCCCCO)Nc1nc2ccc(C(=O)c3ccccc3)cc2[nH]1
Solution: f

Exercise: hey, is inhibition at 3 µM for this one >= 80%? CC(C)n1nc(-c2ccc3cc(OCc4cc(F)cc(Cl)c4)ccc3c2)c2c(N)ncnc21
Solution: t

Exercise: hey, is inhibition at 3 µM for this one >= 80%? CC(=O)N1CCC(Cn2nc(Cc3cccc4ccccc34)c3c(N)ncnc32)CC1
Solution: f

Exercise: hey, is inhibition at 3 µM for this one >= 80%? CC(C)(C)n1nc(-c2ccc3oc(-c4ccccc4)nc3c2)c2c(N)ncnc21
Solution: t

Exercise: hey, is inhibition at 3 µM for this one >= 80%? CC(C)C(=O)Nc1ccc(-c2nn(C(C)(C)C)c3ncnc(N)c23)cc1
Solution: t

---

Target: PfCDPK1 (Plasmodium falciparum (isolate 3D7))
Experiment: biochemical
Settings: read-out: PfCDPK1 (% inhibition @ 3 uM)
endpoint.label: inhibition at 3 µM (%)
Report the value in % with no unit label.

Would you please look over these solved cases?
CC(C)n1nc(Cc2cccc3ccccc23)c2c(N)ncnc21; 78
Nc1ncnc2c1c(Cc1cccc3ccccc13)nn2CC1CCNCC1; 66
CC(C)c1cccc(-c2nn(C(C)C)c3ncnc(N)c23)c1; 74
Cc1cc(-c2nn(C(C)(C)C)c3ncnc(N)c23)ccc1-c1ccccc1; 79

Okay, next one:
Exercise: Note inhibition at 3 µM for the compound shown: CCOc1ccc2cc(-c3nn(C(C)C)c4ncnc(N)c34)ccc2c1
Solution: 94

---

# inhibition at 3 µM per entry
Biological target: PfCDPK1 (Plasmodium falciparum (isolate 3D7))
Test: biochemical
Conditions: read-out: PfCDPK1 (% inhibition @ 3 uM)
Report the value in % with no unit label.

Would you please look over these solved cases?
NC(=O)Cn1nc(Cc2cccc3ccccc23)c2c(N)ncnc21; 45
Nc1ncnc2c1c(-c1ccc3cc(O)ccc3c1)nn2CC1CCNCC1; 102

Exercise: Note inhibition at 3 µM for the compound shown: CC(C)c1nc(-c2cnc3ccccc3c2)c2c(N)nccn12
Solution: 76

Exercise: Note inhibition at 3 µM for the compound shown: CCCCOc1ccc2cc(-c3nn(C(C)C)c4ncnc(N)c34)ccc2c1
Solution: 101

Exercise: Note inhibition at 3 µM for the compound shown: CC(C)(C)n1nc(-c2ccc(NC(=O)c3ccccc3)cc2)c2c(N)ncnc21
Solution: 101

---

Target: PfCDPK4 (Plasmodium falciparum (isolate 3D7), UniProt Q8IBS5)
Assay: biochemical
Conditions: read-out: PfCDPK4 (% inhibition @ 3 uM)
Outcome: T for inhibition at 3 µM of at least 90%; F for anything lower.

Study these solved cases before continuing.
COc1ccc2cc(-c3nn(CC4CCNCC4)c4ncnc(N)c34)ccc2c1; T
CC(C)Oc1ccc2cc(-c3nn(CC4CCNCC4)c4ncnc(N)c34)ccc2c1; T
N#Cc1cccc(-c2ccc(-c3nn(CC4CCNCC4)c4ncnc(N)c34)cc2)c1; F
Nc1ncnc2c1c(I)nn2CC1CCNCC1; F
CCCCOc1ccc2cc(-c3nn(C(C)C)c4ncnc(N)c34)ccc2c1; T
CC(C)n1nc(-c2ccc3c(ccn3C)c2)c2c(N)ncnc21; T
Nc1ncnc2c1c(-c1ccc3cc(OCc4ccccc4Cl)ccc3c1)nn2CC1CCNCC1; T
CC(C)n1nc(-c2cncnc2)c2c(N)ncnc21; F
CCOc1ccc2cc(-c3nc(C(C)(C)C)n4ccnc(N)c34)ccc2c1; T
CC(C)COc1ccc2cc(-c3nn(C(C)(C)C)c4ncnc(N)c34)ccc2c1; F

Exercise: hey, is inhibition at 3 µM for this one >= 90%? CC(C)n1nc(-c2ccc3cc(OCc4cccc(Cl)c4)ccc3c2)c2c(N)ncnc21
Solution: F

---

Biological target: PfCDPK1 (Plasmodium falciparum (isolate 3D7), UniProt P62344)
Assay: biochemical
Details: read-out: PfCDPK1 (% inhibition @ 3 uM)
endpoint.label: inhibition at 3 µM (%)
Report the value in % with no unit label.

Would you please look over these solved cases?
Nc1ncnc2c1c(Cc1cccc3ccccc13)nn2Cc1c[nH]cn1; 51
O=C(NCCC1CCCNC1)Nc1nc2ccc(C(=O)c3ccccc3)cc2[nH]1 (stereo not drawn); 73
CC(C)COc1ccc2cc(-c3nn(CC4CCNCC4)c4ncnc(N)c34)ccc2c1; 100
CCOc1ccc2cc(-c3nc(C(C)(C)C)n4ccnc(N)c34)ccc2c1; 101
O=C(CCC1CCNCC1)Nc1nc2ccc(C(=O)c3ccccc3)cc2[nH]1; 71

Exercise: Note inhibition at 3 µM for the compound shown: Nc1ncnc2c1c(I)nn2CC1CCNCC1
Solution: 85

Exercise: Note inhibition at 3 µM for the compound shown: CC(C)(C)n1nc(Br)c2c(N)ncnc21
Solution: 79

Exercise: Note inhibition at 3 µM for the compound shown: CC(C)n1nc(-c2ccc3cc(OCc4ccc(C(C)(C)C)cc4)ccc3c2)c2c(N)ncnc21
Solution: 101

Exercise: Note inhibition at 3 µM for the compound shown: O=C(NCCO)Nc1nc2ccc(C(=O)c3ccccc3)cc2[nH]1
Solution: 77

Cited source for all entries: patent US11247972B2
